details: Crystal; DSC
Observable: Triple point temperature (K)

Substance smiles: c1cnc2c(c1)ccc1cccnc12
Readout number: 390.9
--
Substance smiles: c1ccc2c(c1)cnc1ccccc12
Readout number: 379.1
--
Substance smiles: c1ccc2nc3ccccc3cc2c1
Readout number: 382
--
Substance smiles: c1cnc2ccc3ncccc3c2c1
Readout number: 444.1
--
Substance smiles: c1cnc2c(c1)ccc1ncccc12
Readout number: 351.7
--
Substance smiles: c1ccc2nc3ccccc3nc2c1
Readout number: 446.4

###

assay: Molar enthalpy of transition or fusion; conditions: Crystal; DSC
Observable: Molar enthalpy of transition or fusion (kcal/mol)

Solved cases (3 shown):
Molecule: c1ccc2c(c1)cnc1ccccc12 [phenanthridine]
Readout number: 5.93
--
Molecule: c1cnc2c(c1)ccc1ncccc12 [1,5-diazaphenanthrene]
Readout number: 6.12
--
Molecule: c1ccc2nc3ccccc3nc2c1 [phenazine]
Readout number: 4.61

[A] c1cnc2c(c1)ccc1cccnc12 [1,10-phenanthroline]
[B] c1ccc2nc3ccccc3cc2c1 [acridine]
## Input Of A and B , which carries the smaller reported Molar enthalpy of transition or fusion figure? Answer = label.
## Output A
(A: 3.2 kcal/mol, B: 4.9 kcal/mol)

Data origin: the NIST ThermoML archive (doi:10.1016/j.tca.2016.05.001)
